- Study System: Ubiquitin-conjugating enzyme E2 N (Homo sapiens)
- Sequence (P61088 whole entry): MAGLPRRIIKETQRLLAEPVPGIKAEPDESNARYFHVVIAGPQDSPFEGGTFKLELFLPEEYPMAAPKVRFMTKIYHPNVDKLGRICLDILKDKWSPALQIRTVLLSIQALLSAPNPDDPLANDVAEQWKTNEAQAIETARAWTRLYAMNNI
- Assay type: functional
The source made the active and inactive calls.
Provide the recorded IC50 for the entries that follow.

Using known records, supply IC50 for COc1ccccc1NC(=O)CSc1nnc(-c2ccoc2C)n1CCc1ccccc1
8.82 µM (active)

Using known records, supply IC50 for CCOC(=O)c1c(NC(=O)COc2ccccc2C#N)sc2c1CC(C)(C)NC2(C)C
4.91 µM (active)

Using known records, supply IC50 for CC(C)N=C(S)N=Nc1c(O)[nH]c2ccc(C(C)C)cc12
3.56 µM (active)

Using known records, supply IC50 for CCCc1nnc(NC(=O)c2nc(S(=O)(=O)Cc3ccc(C)cc3)ncc2Cl)s1
14.8 µM (active)

Using known records, supply IC50 for Cc1cccc(NC(=S)N=Nc2c(O)[nH]c3ccccc23)c1
0.594 µM (active)

Using known records, supply IC50 for CCCOc1ccc(C(=O)Nn2c(C)nc3ccccc3c2=O)cc1
1.32 µM (active)

Using known records, supply IC50 for CN(CCNC(=O)C1CCN(c2ncnc3c2nc2n3CCCCC2)CC1)Cc1ccccc1
2.98 µM (active)

====

Provide the recorded IC50 for the entries that follow.
- Study System: G-protein coupled receptor 55 (Homo sapiens)
- Sequence (Q9Y2T6 whole entry): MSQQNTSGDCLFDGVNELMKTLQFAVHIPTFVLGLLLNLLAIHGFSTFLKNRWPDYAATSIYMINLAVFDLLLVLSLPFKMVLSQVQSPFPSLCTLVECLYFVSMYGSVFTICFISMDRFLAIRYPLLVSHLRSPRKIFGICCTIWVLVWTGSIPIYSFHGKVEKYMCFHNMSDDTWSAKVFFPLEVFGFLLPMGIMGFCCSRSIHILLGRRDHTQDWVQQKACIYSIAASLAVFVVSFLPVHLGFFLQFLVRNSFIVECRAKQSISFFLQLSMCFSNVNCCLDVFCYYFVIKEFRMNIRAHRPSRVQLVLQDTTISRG
- Assay Summary: GPR55 antagonists blocking LPI-driven arrestin recruitment, primary screen, imaging, U2OS, beta-arrestin-GFP, LPI agonist (AID 2013);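 also: antagonist potency measured as reduced agonist-driven arrestin aggregation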
- Format: functional
Activity calls are given as the source filed them.

Using known records, supply IC50 for O=C(CSc1nc(-c2ccccc2)c(-c2ccccc2)[nH]1)N1CCN(S(=O)(=O)c2ccccc2)CC1
3.67 µM (active)

Using known records, supply IC50 for N#C/C(=C\c1c[nH]nc1-c1ccccc1Br)C(=O)O
3.58 µM (active)

Using known records, supply IC50 for CCOC(=O)c1c(CSC(=N)N)n(-c2ccc(C)cc2)c2cc(Br)c(OC(C)=O)cc12
5.03 µM (active)

Using known records, supply IC50 for COc1ccc(C2c3ccc(O)cc3Oc3ncn(Cc4ccco4)c(=N)c32)cc1 (stereo not given)
1.41 µM (active)

Using known records, supply IC50 for CN(C)/C=C/C=C/C=C/C1=[N+](C)c2ccccc2C1(C)C
2.05 µM (active)

====

- Study System: Cytochrome P450 3A4 (Homo sapiens);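 also: CYP3A4 tested as one member of a cytochrome P450 panel screen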
- Sequence (P08684 whole entry): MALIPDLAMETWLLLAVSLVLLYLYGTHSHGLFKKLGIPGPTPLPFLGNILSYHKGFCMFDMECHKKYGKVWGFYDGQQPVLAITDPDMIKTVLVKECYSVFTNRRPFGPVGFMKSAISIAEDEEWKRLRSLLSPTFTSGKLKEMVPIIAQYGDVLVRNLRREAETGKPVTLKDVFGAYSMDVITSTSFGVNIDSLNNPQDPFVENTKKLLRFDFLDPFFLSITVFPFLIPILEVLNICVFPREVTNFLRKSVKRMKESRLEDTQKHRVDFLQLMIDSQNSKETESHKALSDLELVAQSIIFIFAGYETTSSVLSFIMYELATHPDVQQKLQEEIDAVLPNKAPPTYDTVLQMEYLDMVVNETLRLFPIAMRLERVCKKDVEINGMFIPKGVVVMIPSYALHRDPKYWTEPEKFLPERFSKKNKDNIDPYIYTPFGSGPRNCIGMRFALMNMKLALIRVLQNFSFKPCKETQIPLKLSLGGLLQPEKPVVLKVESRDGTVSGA
The source made the active and inactive calls.
Provide the recorded AC50 for the entries that follow.

Lab note: Cytochrome P450 3A4 (Homo sapiens) assay, enter AC50 for Cc1ccc(NC(=O)CCc2c(C)nc3ncnn3c2C)nc1 here
15.8 µM (inconclusive)

Lab note: Cytochrome P450 3A4 (Homo sapiens) assay, enter AC50 for O=C(CSc1nncn1-c1ccccc1)Nc1ccc(N2CCOCC2)cc1 here
3.16 µM (inconclusive)

Lab note: Cytochrome P450 3A4 (Homo sapiens) assay, enter AC50 for COc1ccc(-n2c(=O)cnc3cnc(N(C)C)nc32)cc1 here
39.8 µM (inconclusive)

Lab note: Cytochrome P450 3A4 (Homo sapiens) assay, enter AC50 for COc1ccccc1C(=O)NN1C(=O)C2C3C=CC(O3)C2C1=O (configuration not stated) here
17.8 µM (inconclusive)

Lab note: Cytochrome P450 3A4 (Homo sapiens) assay, enter AC50 for COc1ccc(CNc2ncnc3ccc(-c4ccc5c(c4)OCO5)cc23)c(OC)c1 here
0.794 µM (active)

Lab note: Cytochrome P450 3A4 (Homo sapiens) assay, enter AC50 for Cc1cc(C)cc(C(=O)N(C)[C@H](Cc2ccc(-c3ccccc3)cc2)C(=O)N[C@@H](Cc2c[nH]c3ccccc23)C(=O)O)c1 here
25.1 µM (inconclusive)

Lab note: Cytochrome P450 3A4 (Homo sapiens) assay, enter AC50 for COc1cc(C(=O)N2CCC(NC(=O)C(Cc3ccc(C(C)C)cc3)NC(C)=O)CC2)cc(OC)c1OC (configuration not stated) here
17.8 µM (inconclusive)

Lab note: Cytochrome P450 3A4 (Homo sapiens) assay, enter AC50 for Cc1nc2cnc(N3CCOCC3)nc2n(Cc2cccs2)c1=O here
7.94 µM (inconclusive)

Lab note: Cytochrome P450 3A4 (Homo sapiens) assay, enter AC50 for COc1cc(N)c(Cl)cc1C(=O)OCCCN1CCCCC1 here
25.1 µM (inconclusive)

Lab note: Cytochrome P450 3A4 (Homo sapiens) assay, enter AC50 for CP(=O)(O)C1=CCNCC1 here
39.8 µM (inconclusive)

Lab note: Cytochrome P450 3A4 (Homo sapiens) assay, enter AC50 for O=C(CCCn1c(=S)[nH]c2ccc(Br)cc2c1=O)NCC1CCCO1 (configuration not stated) here
35.5 µM (inconclusive)

Lab note: Cytochrome P450 3A4 (Homo sapiens) assay, enter AC50 for Cc1ccc(C(=O)N/N=C\c2cccn2C)cn1 here
0.316 µM (inconclusive)

Lab note: Cytochrome P450 3A4 (Homo sapiens) assay, enter AC50 for Cc1cc(C)nc(SCC(=O)N/N=C\c2sccc2C)n1 here
15.8 µM (inconclusive)

Lab note: Cytochrome P450 3A4 (Homo sapiens) assay, enter AC50 for Cc1ccccc1C(=O)c1c[nH]c(C(=O)NCc2cccs2)c1 here
22.4 µM (inconclusive)

Lab note: Cytochrome P450 3A4 (Homo sapiens) assay, enter AC50 for CN(C)C(=O)c1ccc(-c2nccc(Nc3ccc(F)cc3)n2)cc1 here
10 µM (inconclusive)

Lab note: Cytochrome P450 3A4 (Homo sapiens) assay, enter AC50 for O=C(Nc1nc[nH]n1)c1ccc([N+](=O)[O-])cc1[N+](=O)[O-] here
14.1 µM (inconclusive)

Lab note: Cytochrome P450 3A4 (Homo sapiens) assay, enter AC50 for COc1ccccc1OCC(=O)N/N=C1/SCC(=O)N1Cc1ccccc1 here
0.891 µM (inconclusive)

====

Provide the recorded AC50 for the entries that follow.
- Assay Summary: control 3'UTR Renilla luciferase suppression, dose response, counter-screen for Shn3 inhibitor project, cell-based, Clone20-Shn3RL, cherry-picked (AID 624133)
- Assay type: functional
The source made the active and inactive calls.

Using known records, supply AC50 for Nc1nc(N)c2cc(CNc3ccc(Cl)c(Cl)c3)ccc2n1
3.34 µM (active)

Using known records, supply AC50 for CCCCC(=O)NC(c1cccc([N+](=O)[O-])c1)c1ccc2cccnc2c1O (stereo not given)
2.08 µM (active)

Using known records, supply AC50 for c1csc(CNc2ncnc3sccc23)c1
4.77 µM (active)

Using known records, supply AC50 for COc1ccc(CNC(=O)c2cccc3c(-c4cccnc4)coc23)cc1OC
2.29 µM (active)

Using known records, supply AC50 for CCc1c(C)nc2cc(-c3ccc(OC)c(OC)c3)nn2c1NCC1CC1
5.44 µM (active)

====

Provide the recorded EC50 for the entries that follow.
- Assay Summary: inhibitors of SNCA 5'UTR-driven reporter translation, confirmation, H4 neuroglioma cells, luminescence (AID 1988)
- Format: functional, cell-based
Activity calls are given as the source filed them.

Using known records, supply EC50 for COc1ccc(-c2cc3nc(C)c(CCC(=O)NC(C)CCc4ccco4)c(C)n3n2)c(OC)c1 (stereo not given)
> 120 µM (not active)

Using known records, supply EC50 for O=C(Nc1ccccc1Cl)N1CCN(c2ccc3nnc(-c4ccc(F)cc4)n3n2)CC1
> 120 µM (not active)

Using known records, supply EC50 for Cc1ccccc1Nc1c(-c2ccccn2)nc2ccccn12
10.5 µM (active)

Using known records, supply EC50 for Cn1cc(C(=O)c2ccc(Cl)cc2Cl)cc1C(=O)NN=C(N)COc1ccc(Cl)cc1Cl
9.69 µM (active)

Using known records, supply EC50 for N#CCCCC#Cc1ccc2c(c1)COc1c3ccccc3nn1-2
10.1 µM (inconclusive)

====

- Assay Summary: Late stage assay provider results from the probe development effort to identify inhibitors of Protein Phosphatase Methylesterase 1 (PME-1): luminescence-based biochemical dose response assay to determine cytotoxicity of inhibitor compounds. [Related pubchem assays (depositor defined):AID2130, AID2143, AID2171, AID2174, AID2177, AID2232, AID2233, AID2291, AID2363, AID2365, AID2366, AID2368, AID2369, AID2371, AID463124, AID463130, AID463131, AID463132, AID463146, AID463149] Panel member name: Fetal Calf Serum
- Type: toxicity
Activity calls are given as the source filed them.
Measurement Type: CC50

Using known records, supply CC50 for COC(=O)N1C(=O)[C@](c2ccccc2)(C2CCCC2)N1C(=O)OC
> 50 µM (inactive)

====

- Assay Summary: inhibitors of intracellular T. cruzi replication, confirmation, NIH3T3 host cells, beta-gal luminescence (AID 2044);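 also: intracellular parasites grown in NIH/3T3 mouse fibroblasts as host cells; luminescent beta-galactosidase reporter signal from transgenic T. cruzi replicating inside host cells; inhibitors lower the luminescence signal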
- Assay type: functional, cell-based
Calls of active or inactive are those of the source.
Provide the recorded EC50 for the entries that follow.

Using known records, supply EC50 for COc1ccc(C/N=C/c2[nH]c3ccc(Br)c(Cl)c3c2O)cc1
1.31 µM (active)

Using known records, supply EC50 for CC1CCC(C(C)C)C(OC(=O)COC(=O)c2cc(O)ccc2N)C1 (stereo not given)
4.92 µM (active)

Using known records, supply EC50 for COc1cccc(OCCCn2cc(/C=C3/C(=N)N4C=C(C)SC4=NC3=O)c3ccccc32)c1
1.34 µM (active)

Using known records, supply EC50 for Nc1nc(-c2ccc(Cl)cc2)c(N=Nc2ccc(S(=O)(=O)N3CCOCC3)cc2)s1
1.96 µM (active)

Using known records, supply EC50 for CN1CCN(c2nc(-c3ccccc3)nc(-c3ccc(F)cc3)c2C#N)CC1
1.25 µM (active)

Using known records, supply EC50 for O=C(N/N=C/c1ccc([N+](=O)[O-])s1)c1ccncc1
0.838 µM (active)

Using known records, supply EC50 for C=C(C)c1cccc(C(C)(C)NC(=O)NC2CCN(Cc3ccccc3)CC2)c1
0.103 µM (active)

Using known records, supply EC50 for CC(C)CCOC(=O)C[N+](C)(C)CCOC1CC2CCC1(C)C2(C)C (stereo not given)
0.286 µM (active)

Using known records, supply EC50 for CSc1ccc(NC(=O)Nc2cccn(Cc3ccccc3F)c2=O)cc1
4.33 µM (active)

Using known records, supply EC50 for COc1ccc(Br)cc1C(=O)Nc1ccc(Cc2ccncc2)cc1
3.4 µM (active)

Reference source for all entries: ChEMBL document CHEMBL1201862
